// data source = ChEMBL document CHEMBL1201862

Test system: SW-620
Test: NCI tumour cell line growth inhibition, 48 h
Activity calls are given as the source filed them. Cut-off read from the data, not from the text of the source: active = GI50 up to about 1.1 µM and inactive = higher.
endpointName: GI50

// CCOC(=O)C(NNS(=O)(=O)c1ccc(C)cc1)S(=O)(=O)C(F)(F)C(F)(F)C(F)(F)C(F)(F)F (stereo not given) : GI50 value = > 100 µM (inactive)

// COc1nc(N)c(C(=O)CCl)c(=O)n1C : GI50 value = 12.4 µM (inactive)

// COC(=O)CCC(NC(=O)C(C)NC(=O)COC1C(O)C(OC(=O)CCNc2c3ccccc3nc3cccc([N+](=O)[O-])c23)OC(OCc2ccccc2)C1NC(C)=O)C(N)=O (stereo not given) : GI50 value = 0.114 µM (active)

// CN1C(=O)C(O)CC1c1ccc(C(F)(F)F)cc1 (stereo not given) : GI50 value = > 100 µM (inactive)

// O=C(NN1C(=O)CSC1c1ccco1)c1ccncc1 (stereo not given) : GI50 value = > 100 µM (inactive)
